Source listed as PubChem BioAssay (NCATS).

System: CP329
assay.method.text: qHTS profiling for inhibitors of Plasmodium falciparum proliferation (AID 504749); also: nearly all actives have a fitted effect of over 60% in size; also: potency is read from the fitted curve at half-maximal effect
measurement.setup: P. falciparum in erythrocytes, SYBR Green DNA, 72 h; series mostly up to 28.7 µM
Method: NIH National Institute of Allergy and Infectious Diseases [NIAID] NIH Chemical Genomics Center [NCGC] […] Because mature erythrocytes lack DNA, only Plasmodium-derived DNA is detected. NCGC Assay Protocol Summary: The SYBR Green viability assay was adapted from a method described previously (Plouffe et al., 2008). […] The following morning, fluorescence intensity at 485(14) nm excitation and 535(25) nm emission wavelengths was measured on an EnVision (Perkin Elmer) plate reader. […]
Records with an inconclusive call do not appear. Activity calls are given as the source filed them. Calls follow the shape of the dose curve; as a rule, active = well fitted inhibition curve with a large enough effect; inconclusive = small, poorly fitted or top-dose-only effect; inactive = flat fitted curve, though single readings scatter.

compound	Potency
O=C(O)P(=O)(O)O	inactive
CN(C)CCN1C(=O)c2ccccc2N(C)c2ccccc21	inactive
N/C(=N\N=C\c1ccc(Cl)cc1)N/N=C/c1ccc(Cl)cc1	inactive
O=C(Nc1ncc([N+](=O)[O-])s1)c1cccs1	inactive
FC1(F)C(F)(F)C(F)(F)C2(F)C(F)(F)C(F)(F)C(F)(F)C(F)(F)C2(F)C1(F)F (stereo unspecified)	inactive
Cc1c(-c2ccccc2)oc2c(C(=O)OCCN3CCCCC3)cccc2c1=O	inactive
CCOC(=O)[C@H](CCc1ccccc1)N[C@@H](C)C(=O)N1[C@H](C(=O)O)C[C@H]2CCCC[C@@H]21	inactive
C[N+]1(C)CCC(=C(c2ccccc2)c2ccccc2)CC1	inactive
N=C(N)N1CCc2ccccc2C1	inactive
C=C[C@@]1(C)CC(=O)[C@]2(O)[C@@]3(C)[C@@H](O)CCC(C)(C)[C@@H]3[C@H](O)[C@H](OC(C)=O)[C@@]2(C)O1	inactive
CC(C)[N+](C)(C)CC(O)COc1cccc2ccccc12 (stereo unspecified)	inactive
CN(C)CCC[C@@]1(c2ccc(F)cc2)OCc2cc(C#N)ccc21	inactive
Oc1ccccc1C=NCc1ccccc1	inactive
CCCCC(CC)COC(=O)/C=C/c1ccc(OC)cc1 (stereo unspecified)	inactive
COc1ccc(-c2cc(C(F)F)nn2-c2ccc(S(N)(=O)=O)cc2)cc1F	inactive
Cc1ccc2c(Br)cc(Br)c(O)c2n1	15.1 µM (active)

---

Tested on: CP238
assay.method.text: qHTS profiling for inhibitors of Plasmodium falciparum proliferation (AID 504749); also: nearly all actives have a fitted effect of over 60% in size
measurement.setup: P. falciparum in erythrocytes, SYBR Green DNA, 72 h; series mostly up to 28.7 µM
Records with an inconclusive call do not appear. The source made the active and inactive calls. Calls come from the whole dose curve; as a rule, active = well fitted inhibition curve with a large enough effect; inconclusive = small, poorly fitted or top-dose-only effect; inactive = flat fitted curve, though single readings scatter.
Labels: yes = active, no = inactive

COc1ccc(C(=O)c2ccccc2)c(O)c1 no
Cc1ccc(O)c([C@H](CCN(C(C)C)C(C)C)c2ccccc2)c1 yes
CCCCCCCCCCCCCCCCO no

---

assay.method.text: qHTS profiling for inhibitors of Plasmodium falciparum proliferation (AID 504749); also: nearly all actives have a fitted effect of over 60% in size; also: potency is read from the fitted curve at half-maximal effect
measurement.setup: P. falciparum in erythrocytes, SYBR Green DNA, 72 h; parasite line A
Results filed as inconclusive are left out. Calls of active or inactive are those of the source. Calls come from the whole dose curve; as a rule, active = well fitted inhibition curve with a large enough effect; inconclusive = small, poorly fitted or top-dose-only effect; inactive = flat fitted curve, though single readings scatter.
Potency listing for selected compounds.
measurement.label: Potency

compound	measurement.label	result.value
C[N+]1(CC2COC(c3ccccc3)(C3CCCCC3)O2)CCCCC1 (stereo not given)	Potency	2.82 µM (active)
N/C(=N\N=C\c1ccc(Cl)cc1)N/N=C/c1ccc(Cl)cc1	Potency	3.16 µM (active)
CC(=O)O[C@]1(C(C)=O)CC[C@H]2[C@@H]3C=C(Cl)C4=CC(=O)CC[C@]4(C)[C@H]3CC[C@@]21C	Potency	12.6 µM (active)
NC(N)=NN=C(/C=C/c1ccc([N+](=O)[O-])o1)/C=C/c1ccc([N+](=O)[O-])o1	Potency	7.08 µM (active)
O=C(c1ccc(F)cc1)C1CCN(CCn2c(=S)[nH]c3ccccc3c2=O)CC1	Potency	5.01 µM (active)

---

target.of.assay: Ubiquitin carboxyl-terminal hydrolase 1 (Homo sapiens) (UniProt O94782)
Sequence (O94782 whole entry, looked up): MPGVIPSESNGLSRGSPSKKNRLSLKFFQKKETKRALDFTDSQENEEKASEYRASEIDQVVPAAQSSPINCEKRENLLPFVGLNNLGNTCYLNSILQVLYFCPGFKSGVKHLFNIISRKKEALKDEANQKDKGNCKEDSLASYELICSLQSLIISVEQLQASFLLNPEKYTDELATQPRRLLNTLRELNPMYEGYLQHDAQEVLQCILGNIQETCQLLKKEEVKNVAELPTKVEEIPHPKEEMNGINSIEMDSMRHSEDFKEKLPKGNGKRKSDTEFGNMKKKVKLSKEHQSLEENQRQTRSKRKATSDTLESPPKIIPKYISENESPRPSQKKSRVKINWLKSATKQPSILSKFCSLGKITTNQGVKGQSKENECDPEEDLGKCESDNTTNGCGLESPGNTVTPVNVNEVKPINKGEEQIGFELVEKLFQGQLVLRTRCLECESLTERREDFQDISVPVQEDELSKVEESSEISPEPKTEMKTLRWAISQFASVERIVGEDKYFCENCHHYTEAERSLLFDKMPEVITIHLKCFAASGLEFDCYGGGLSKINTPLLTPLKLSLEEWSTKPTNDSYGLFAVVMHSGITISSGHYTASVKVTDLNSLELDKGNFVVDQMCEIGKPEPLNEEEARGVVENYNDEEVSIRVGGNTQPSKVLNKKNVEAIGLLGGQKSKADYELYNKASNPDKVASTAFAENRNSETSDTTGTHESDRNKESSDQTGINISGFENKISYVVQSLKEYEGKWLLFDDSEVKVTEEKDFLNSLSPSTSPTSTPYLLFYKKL
assay.method.text: Inhibitors of USP1/UAF1: Pilot qHTS (AID 504865); also: nearly all actives have a fitted effect of over 35% in size; also: potency is read from the fitted curve at half-maximal effect
measurement.setup: purified USP1/UAF1, Ub-rhodamine cleavage fluorescence; series mostly up to 114 µM
Results filed as inconclusive are left out. Activity calls are given as the source filed them. Calls follow the shape of the dose curve; as a rule, active = well fitted inhibition curve with a large enough effect; inconclusive = small, poorly fitted or top-dose-only effect; inactive = flat fitted curve, though single readings scatter.
measurement.label: Potency

NCc1ccccc1Sc1ccccc1CO inactive
O=C1C(O)=C(O)C(=O)C(O)=C1O 50.1 µM (active)
COc1cc(C(=O)N2CCCCCCC2)cc(OC)c1OC inactive
NC(=O)c1ccccc1O inactive
CCN(CC)CCOc1ccc2c(c1)C(=O)c1cc(OCCN(CC)CC)ccc1-2 inactive

---

Tested on: UISO
assay.method.text: qHTS assay to identify novel small-molecules to repurpose for Merkel cell carcinoma treatment (AID 1296009); also: nearly all actives have a fitted effect of over 60% in size
measurement.setup: MCC and control cell lines, CellTiter-Glo viability, 72 h; series mostly up to 46 µM
Results filed as inconclusive are left out. Calls of active or inactive are those of the source. The call rests on the fitted dose curve; in most records, active means well fitted inhibition curve with a large enough effect; inconclusive means small, poorly fitted or top-dose-only effect; inactive means flat fitted curve, though single readings scatter.
Labels: active, inactive

compound	category.label
Cc1cc(C)cc(OCC2CNC(=O)O2)c1 (stereo not given)	inactive
CN1CCN(c2cc3c(cc2F)c(=O)c(C(=O)O)cn3-c2ccc(F)cc2)CC1	inactive
CC(C)n1c(/C=C/[C@@H](O)C[C@@H](O)CC(=O)O)c(-c2ccc(F)cc2)c2ccccc21	active
COc1cc(C(=O)N2CCCCCCC2)cc(OC)c1OC	inactive
O=C1[C@H](CC[C@H](O)c2ccc(F)cc2)[C@@H](c2ccc(O)cc2)N1c1ccc(F)cc1	inactive

---

Test system: CP268
assay.method.text: qHTS profiling for inhibitors of Plasmodium falciparum proliferation (AID 504749); also: nearly all actives have a fitted effect of over 60% in size; also: potency is read from the fitted curve at half-maximal effect
measurement.setup: P. falciparum in erythrocytes, SYBR Green DNA, 72 h; series mostly up to 28.7 µM
Results filed as inconclusive are left out. The source made the active and inactive calls. Calls come from the whole dose curve; as a rule, active = well fitted inhibition curve with a large enough effect; inconclusive = small, poorly fitted or top-dose-only effect; inactive = flat fitted curve, though single readings scatter.

compound	Potency
C[N+]1(CC2COC(c3ccccc3)(C3CCCCC3)O2)CCCCC1 (stereo not drawn)	7.57 µM (active)
O=C(Nc1cccc(C2=NCCN2)c1)Nc1cccc(C2=NCCN2)c1	15.1 µM (active)
COc1cc(C(=O)N2CCCCCCC2)cc(OC)c1OC	inactive
COc1ccc(CCN(C)CCCN2CCc3cc(OC)c(OC)cc3CC2=O)cc1OC	inactive
CN1CCN(C2=Nc3ccccc3Sc3ccc(Cl)cc32)CC1	inactive
O=C(c1ccc(F)cc1)C1CCN(CCn2c(=S)[nH]c3ccccc3c2=O)CC1	6.01 µM (active)
CCCCC(CC)COC(=O)c1ccc(N(C)C)cc1 (stereo not drawn)	inactive
CCCCNc1ccc(C(=O)OCCOCCOCCOCCOCCOCCOCCOCCOCCOC)cc1	inactive
CCOc1ccccc1OCCN[C@H](C)Cc1ccc(OC)c(S(N)(=O)=O)c1	inactive
NC(=O)C1(N2CCCCC2)CCN(CCCC(=O)c2ccc(F)cc2)CC1	inactive
CCOC(=O)C(C#N)=C(c1ccccc1)c1ccccc1	inactive
O=C(NC1CCN(CCc2c[nH]c3ccccc23)CC1)c1ccccc1	inactive
CC(C)=CCOc1ccc(/C=C/C(=O)c2ccc(OCC=C(C)C)cc2OCC(=O)O)cc1	inactive

---

System: CP291
assay.method.text: qHTS profiling for inhibitors of Plasmodium falciparum proliferation (AID 504749); also: nearly all actives have a fitted effect of over 60% in size
measurement.setup: P. falciparum in erythrocytes, SYBR Green DNA, 72 h; series mostly up to 28.7 µM
Results filed as inconclusive are left out. The source made the active and inactive calls. The call rests on the fitted dose curve; in most records, active means well fitted inhibition curve with a large enough effect; inconclusive means small, poorly fitted or top-dose-only effect; inactive means flat fitted curve, though single readings scatter.
Labels: yes for active, no for inactive

CC(C)(C)NC[C@H](O)COc1nsnc1N1CCOCC1 yes
O=C(O)Cc1csc(-c2ccc(Cl)cc2)n1 no
CC(C)(C)CC(C)(C)c1ccc(O)c(-n2nc3ccccc3n2)c1 no
O=C(O)CCC(=O)Nc1ccc(S(=O)(=O)Nc2nccs2)cc1 no

---

Test system: Zika virus NS2B-NS3 protease
assay.method.text: Primary screen GU AMC qHTS for Zika virus inhibitors (AID 1347154); also: nearly all actives have a fitted effect of over 70% in size
measurement.setup: Zika NS2B-NS3 unlinked protease, AMC fluorogenic substrate; series mostly up to 54.1 µM
Inconclusive results are not listed. The source made the active and inactive calls. Calls follow the shape of the dose curve; as a rule, active = well fitted inhibition curve with a large enough effect; inconclusive = small, poorly fitted or top-dose-only effect; inactive = flat fitted curve, though single readings scatter.
Labels: active, inactive

molecule	category.label
Cc1cc(NS(=O)(=O)c2ccc(N)cc2)nc(C)n1	inactive
Cc1ncc(CO)c(C=O)c1O	active
CCN(CC)CCNC(=O)c1cc(Br)c(N)cc1OC	inactive
CCN1CCN(C(=O)N[C@@H](C(=O)N[C@@H]2C(=O)N3C(C(=O)O)=C(CSc4nnnn4C)CS[C@H]23)c2ccc(O)cc2)C(=O)C1=O	inactive
CC(C(=O)O)c1cccc(Oc2ccccc2)c1 (stereo not given)	inactive

---

Tested on: Dd2
assay.method.text: qHTS profiling for inhibitors of Plasmodium falciparum proliferation (AID 504749); also: nearly all actives have a fitted effect of over 60% in size
measurement.setup: P. falciparum in erythrocytes, SYBR Green DNA, 72 h; series mostly up to 28.7 µM
Results filed as inconclusive are left out. Activity calls are given as the source filed them. The call rests on the fitted dose curve; in most records, active means well fitted inhibition curve with a large enough effect; inconclusive means small, poorly fitted or top-dose-only effect; inactive means flat fitted curve, though single readings scatter.
Labels: Yes for active, No for inactive

compound	target.of.assay	category.label
O=C(O)c1ccc(S(=O)(=O)N(Cl)Cl)cc1	Dd2	No
COc1cc(C)nc(-n2nc(C)cc2OC)n1	Dd2	No
Nc1ccc(C(=O)NCC(=O)O)cc1	Dd2	No
CCCCCCCCNC(C)C(O)c1ccc(SC(C)C)cc1 (stereo not drawn)	Dd2	Yes
OCc1ccccn1	Dd2	No
CCC1Nc2cc(Cl)c(S(N)(=O)=O)cc2S(=O)(=O)N1 (stereo not drawn)	Dd2	No
C/C=C/C=N/NC(=O)c1ccncc1	Dd2	No
Cc1cccc(C)c1NC(=O)CN1CCCC1	Dd2	No
CC(=O)Nc1ccc(OC(=O)c2ccccc2OC(C)=O)cc1	Dd2	No
O[C@@H](c1cc(C(F)(F)F)nc2c(C(F)(F)F)cccc12)[C@H]1CCCCN1	Dd2	Yes
CC1CCc2c(N3CCC(O)CC3)c(F)cc3c(=O)c(C(=O)O)cn1c23 (stereo not drawn)	Dd2	No
Cc1ccccc1OCC(O)CO (stereo not drawn)	Dd2	No
C[N+]1(C)CCC(=C(c2ccccc2)c2ccccc2)CC1	Dd2	No
COc1ccc2c(c1)c1c3n2CCN(C)C3=NCC1	Dd2	No
c1ccc(CC2=NCCN2)cc1	Dd2	No
CC(=O)Oc1ccc(C)cc1	Dd2	No
CCN(CC)CCNC(=O)COc1ccc(OC)cc1	Dd2	No
NC(=O)n1c(O)c(C(=O)c2cccs2)c2cc(Cl)ccc21	Dd2	No
CCOC(=O)[C@H](CCc1ccccc1)N[C@@H](C)C(=O)N1[C@H](C(=O)O)C[C@H]2CCCC[C@@H]21	Dd2	No
Cc1c[nH]c2ccccc12	Dd2	No
COc1ccc(-c2cc(C(F)F)nn2-c2ccc(S(N)(=O)=O)cc2)cc1F	Dd2	No
O=C(Nc1cccc(C2=NCCN2)c1)Nc1cccc(C2=NCCN2)c1	Dd2	Yes
CCNC(=O)/C=C/c1cccc(Br)c1	Dd2	No
CCCCC(CC)COC(=O)c1ccc(N(C)C)cc1 (stereo not drawn)	Dd2	No
Nc1ccc(S(=O)(=O)NCc2ccccc2)cc1	Dd2	No
O=C1C(=O)c2ccccc2C(O)=C1C1CCC(c2ccc(Cl)cc2)CC1 (stereo not drawn)	Dd2	Yes
Cc1ccc(S(=O)(=O)NC(=O)NC2CCCC2)cc1	Dd2	No
CCc1ccc(C(=O)C(C)CN2CCCCC2)cc1 (stereo not drawn)	Dd2	No
NS(=O)(=O)c1ccc(Cl)c(S(N)(=O)=O)c1	Dd2	No
CC(C)(C)NC[C@H](O)COc1cccc2c1CCCC2=O	Dd2	No
O=C(Oc1cccc2cccnc12)c1ccccc1	Dd2	No
CCCCCCCCCCCCCC(=O)OC(C)C	Dd2	No
Nc1nc(N)c(-c2ccccc2)s1	Dd2	No
CCN(CC)CCNc1ccc(CO)c2sc3ccccc3c(=O)c12	Dd2	Yes
Cc1ccc(O)c([C@H](CCN(C(C)C)C(C)C)c2ccccc2)c1	Dd2	Yes
CCCCCCCCCCCCCCCCO	Dd2	No
CC(=O)OC[C@H]1O[C@@H](n2ncc(=O)[nH]c2=O)[C@H](OC(C)=O)[C@@H]1OC(C)=O	Dd2	No
Cc1nc(-c2ccc(Cl)cc2)oc1COC(C)(C)C(=O)O	Dd2	No
